Every entry's value here was drawn from paper PMC3629922.

- Measured on: 5-HT2B receptor (Homo sapiens, UniProt P41595)
- Sequence (P41595 whole entry): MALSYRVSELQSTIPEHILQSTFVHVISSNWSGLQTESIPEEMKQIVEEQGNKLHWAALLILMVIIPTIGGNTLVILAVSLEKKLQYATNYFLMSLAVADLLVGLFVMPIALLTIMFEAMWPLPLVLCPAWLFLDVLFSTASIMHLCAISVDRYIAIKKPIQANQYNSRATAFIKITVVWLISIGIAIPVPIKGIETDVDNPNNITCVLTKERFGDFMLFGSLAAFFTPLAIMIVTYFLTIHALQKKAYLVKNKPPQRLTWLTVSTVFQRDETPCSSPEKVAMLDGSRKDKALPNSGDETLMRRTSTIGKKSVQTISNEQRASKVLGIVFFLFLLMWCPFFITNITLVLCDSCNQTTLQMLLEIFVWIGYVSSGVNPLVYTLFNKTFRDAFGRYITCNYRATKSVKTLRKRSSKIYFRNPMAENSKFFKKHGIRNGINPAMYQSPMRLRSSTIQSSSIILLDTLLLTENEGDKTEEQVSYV
- Measurement description: 5-HT2B functional assay using HTRF quantitation of IP1 accumulation
- Format: cell-based
Outcome measure: Functionality at the 5-HT2B receptor (IP1 assay)

Molecule	Measured on	Result
C=CCN1C[C@H](C(=O)N(CCCN2CCOCC2)C(=O)NCC)C[C@@H]2c3cccc4[nH]cc(c34)C[C@H]21	5-HT2B receptor (Homo sapiens, UniProt P41595)	full agonists
CCNC(=O)N(CCCN(C)C)C(=O)[C@@H]1C[C@@H]2c3cccc4c3c(cn4C)C[C@H]2N(C)C1	5-HT2B receptor (Homo sapiens, UniProt P41595)	no agonism
COC(OC)[C@@H]1C[C@@H]2c3cccc4c3c(cn4C)C[C@H]2N(C)C1	5-HT2B receptor (Homo sapiens, UniProt P41595)	no agonism
C=CCN1C[C@H](C(=O)N(CCCN(C)C)C(=O)NCC)C[C@@H]2c3cccc4[nH]cc(c34)C[C@H]21 [cabergoline, reference compound]	5-HT2B receptor (Homo sapiens, UniProt P41595)	full agonists
